PROTOCOL TEXT: chemical genetic growth profiling, strain panel (AID 1159580);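 also: tested at 20 µM; growth read once vehicle control cultures reached saturation at 30 °C; 1 = growth at the plate median or of vehicle wells; lower values mean less growth of the strain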
EXPERIMENTAL CONTEXT: S. cerevisiae deletion strains, growth OD, locus YOR083W, strain WHI5
The whole screen tested about 5,500 compounds, of which about 2,000 (36%) were called active. Not shown: some 18% with an inconclusive outcome. Rule as the data show it: active = normalized growth mostly below about 0.91 (no sharp cut-off); inconclusive = no clear call, values can overlap the other calls; inactive = mostly above about 0.92. The list shows a part of the results.
Pick one and only one: Y for active, N for inactive

Examples with answers:
-- ask Could you kindly confirm the outcome this assay logged for CC(=O)O[C@H]1CC[C@@]2(C)C(=CCC3C2CC[C@@]2(C)C3CC[C@@H]2C(C)CCCC(C)C)C1 (stereo partly specified) ?
-- reply N

-- ask Could you kindly confirm the outcome this assay logged for OC1CCCCC1N1CCC(c2ccccc2)CC1 (stereo unspecified) ?
-- reply N

-- ask Could you kindly confirm the outcome this assay logged for CC(=O)O[C@H]1CC[C@@]2(C)C(=CCC3C2CC[C@]2(C)C(=O)CCC32)C1 (stereo partly specified) ?
-- reply N

-- ask Could you kindly confirm the outcome this assay logged for COc1ccccc1OCC(O)CN1CCN(CC(=O)Nc2c(C)cccc2C)CC1 (stereo unspecified) ?
-- reply N

-- ask Could you kindly confirm the outcome this assay logged for O=C(O)CNCP(=O)(O)O ?
-- reply N

Next:
-- ask Could you kindly confirm the outcome this assay logged for CC12CCC3C(CC=C4CC(O)CCC43C)C1CCC2=O (stereo unspecified) ?
-- reply Y

---

PROTOCOL TEXT: chemical genetic growth profiling, strain panel (AID 1159580)
EXPERIMENTAL CONTEXT: S. cerevisiae deletion strains, growth OD, locus YML120C, strain ndi1
About 2,000 (36%) of roughly 5,500 compounds were called active. About 18% were inconclusive and are not listed. Rule as the data show it: active = normalized growth mostly below about 0.91 (no sharp cut-off); inconclusive = no clear call, values can overlap the other calls; inactive = mostly above about 0.92. The list shows a part of the results.
Pick one and only one: active, inactive

-- ask Could you kindly confirm the outcome this assay logged for NC(=O)c1cc[n+](CC2=C(C(=O)O)N3C(=O)C(NC(=O)C(c4ccccc4)S(=O)(=O)[O-])C3SC2)cc1 (configuration not stated) ?
-- reply inactive

-- ask Could you kindly confirm the outcome this assay logged for CS(=O)(=O)OCCCCOS(C)(=O)=O ?
-- reply inactive

-- ask Could you kindly confirm the outcome this assay logged for CCOC(=O)c1ccc(N)cc1 ?
-- reply inactive

-- ask Could you kindly confirm the outcome this assay logged for CC(=O)O[C@H]1CC[C@@]2(C)C(=CCC3C2CC[C@@]2(C)C3CC[C@@H]2C(C)CCCC(C)C)C1 (some centres not stated) ?
-- reply inactive

-- ask Could you kindly confirm the outcome this assay logged for CCC(COC(=O)c1cc(OC)c(OC)c(OC)c1)(c1ccccc1)N(C)C (configuration not stated) ?
-- reply inactive

-- ask Could you kindly confirm the outcome this assay logged for CC(=O)O[C@H]1CC[C@@]2(C)C(=CCC3C2CC[C@]2(C)C(=O)CCC32)C1 (some centres not stated) ?
-- reply inactive

-- ask Could you kindly confirm the outcome this assay logged for C=CCc1cc(OC)c2c(c1OC)OCO2 ?
-- reply inactive

-- ask Could you kindly confirm the outcome this assay logged for CC(=O)O[C@H]1C[C@@H](OC(C)=O)C(C)(C)C2C[C@@H](OC(C)=O)[C@]3(C)C(CC[C@@]4(C)[C@H](c5ccoc5)C(=O)[C@H]5O[C@]543)[C@]21C (some centres not stated) ?
-- reply inactive

---

Entries and their measured normalized growth follow.
PROTOCOL TEXT: chemical genetic growth profiling, strain panel (AID 1159580)
EXPERIMENTAL CONTEXT: S. cerevisiae deletion strains, growth OD, locus YPR111W, strain DBF20, hits give low values
Screen size: about 5,500 compounds; about 2,000 (36%) were called active. About 18% were inconclusive and are not listed. This is one part of the list.
Respond numerically, and do not add a unit to the figure.

Consider the worked cases shown below.
-- ask Read the entry Cc1nc(C(F)(F)F)c(C(=O)O/N=C(/N)c2ccc(Cl)cc2)s1 and write its reported normalized growth.
-- reply 0.976

-- ask Read the entry N/C(=N/OC(=O)c1ccc(Cl)cc1)c1ccc(F)cc1F and write its reported normalized growth.
-- reply 0.936

-- ask Read the entry O=S(=O)(Nc1cc(C(F)(F)F)ccc1F)c1cc(C(F)(F)F)ccc1Cl and write its reported normalized growth.
-- reply 0.925

-- ask Read the entry COc1cc(C(=O)Oc2c(Cl)cc(Cl)cc2C=Nc2cccc([N+](=O)[O-])c2)cc(OC)c1OC and write its reported normalized growth.
-- reply 0.928

Read the next record carefully.
-- ask Read the entry CN(C)/C=C/C(=O)c1ccc(C#Cc2ccccc2)cc1 and write its reported normalized growth.
-- reply 0.97

---

PROTOCOL TEXT: chemical genetic growth profiling, strain panel (AID 1159580);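 also: tested at 20 µM; growth read once vehicle control cultures reached saturation at 30 °C; 1 = growth at the plate median or of vehicle wells; lower values mean less growth of the strain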
EXPERIMENTAL CONTEXT: S. cerevisiae deletion strains, growth OD, locus YOR270C, strain vph1
In all, about 5,500 compounds went through this assay and about 2,000 (36%) were called active. Another 18% or so got no clear call; they are omitted. Cut-off read from the data, not from the text of the source: active = normalized growth mostly below about 0.91 (no sharp cut-off); inconclusive = no clear call, values can overlap the other calls; inactive = mostly above about 0.92. The list shows a part of the results.
Pick one and only one: active, inactive

-- ask Could you kindly confirm the outcome this assay logged for C#C[C@]1(O)CCC2C3CCc4cc(O)ccc4C3CC[C@@]21C (some centres not stated) ?
-- reply inactive

-- ask Could you kindly confirm the outcome this assay logged for O=C1N=C(O)CN1/N=C\c1ccc(-c2ccc([N+](=O)[O-])cc2)o1 ?
-- reply inactive

-- ask Could you kindly confirm the outcome this assay logged for C#C[C@]1(O)CCC2C3CCc4cc(OC)ccc4C3CC[C@@]21C (some centres not stated) ?
-- reply inactive

-- ask Could you kindly confirm the outcome this assay logged for O=C(O)CNCP(=O)(O)O ?
-- reply inactive

-- ask Could you kindly confirm the outcome this assay logged for CCCN(CCC)CCc1cccc2c1CC(=O)N2 ?
-- reply inactive

Next:
-- ask Could you kindly confirm the outcome this assay logged for COc1ccc(/C=C/C(=O)c2cc(O)ccc2O)cc1 ?
-- reply active

-- ask Could you kindly confirm the outcome this assay logged for N[C@@H](CCC(=O)N[C@@H](CCSC(CC(=O)O)C(=O)O)C(=O)NCC(=O)O)C(=O)O (some centres not stated) ?
-- reply inactive

-- ask Could you kindly confirm the outcome this assay logged for COc1ccc(C=CC(=O)c2ccc(O)cc2O)cc1OC ?
-- reply active

---

PROTOCOL TEXT: chemical genetic growth profiling, strain panel (AID 1159580);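 also: tested at 20 µM; growth read once vehicle control cultures reached saturation at 30 °C; 1 = growth at the plate median or of vehicle wells; lower values mean less growth of the strain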
EXPERIMENTAL CONTEXT: S. cerevisiae deletion strains, growth OD, locus YDR054C, strain cdc34, hits give low values
The whole screen tested about 5,500 compounds, of which about 2,000 (36%) were called active. Inconclusive results (about 18%) are left out. Some of the results follow.
EXPERIMENTAL ENDPOINT: normalized growth
Respond numerically, and do not add a unit to the figure.

-- ask Read the entry Nc1cc(-c2ccc(OC(F)(F)F)cc2)nn1-c1ccc(Cl)c(Cl)c1 and write its reported normalized growth.
-- reply 0.904

-- ask Read the entry COc1cc(C(=O)Oc2c(Cl)cc(Cl)cc2C=Nc2cccc([N+](=O)[O-])c2)cc(OC)c1OC and write its reported normalized growth.
-- reply 0.956

-- ask Read the entry Clc1ccc(-c2noc(CSC3=NCCN3)n2)cc1 and write its reported normalized growth.
-- reply 0.96

Next:
-- ask Read the entry CCOC(=O)NC(=S)NC12CC3CC(CC(C3)C1)C2 and write its reported normalized growth.
-- reply 0.967

-- ask Read the entry COc1cc(C(=O)Oc2c(Cl)cc(Cl)cc2C=Nc2ccc([N+](=O)[O-])cc2C#N)cc(OC)c1OC and write its reported normalized growth.
-- reply 0.968

-- ask Read the entry Cc1cc(C(=O)O/N=C(/N)c2ccc([N+](=O)[O-])o2)no1 and write its reported normalized growth.
-- reply 0.991

-- ask Read the entry COc1cc(C(=O)Oc2c(Cl)cc(Cl)cc2C=Nc2cccc(C(F)(F)F)c2)cc(OC)c1OC and write its reported normalized growth.
-- reply 0.959

-- ask Read the entry CSc1cccc(N2C(=O)CC(c3c(Cl)cccc3Cl)CC2=O)c1 and write its reported normalized growth.
-- reply 0.983

-- ask Read the entry O=C(Nc1cccc(C(F)(F)F)c1)Oc1ccc(F)cc1Cl and write its reported normalized growth.
-- reply 0.975

-- ask Read the entry Cc1nc(C(F)(F)F)c(C(=O)O/N=C(/N)c2ccc(Cl)cc2)s1 and write its reported normalized growth.
-- reply 1

---

Entries and their measured normalized growth follow.
PROTOCOL TEXT: chemical genetic growth profiling, strain panel (AID 1159580);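 also: tested at 20 µM; growth read once vehicle control cultures reached saturation at 30 °C; 1 = growth at the plate median or of vehicle wells; lower values mean less growth of the strain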
EXPERIMENTAL CONTEXT: S. cerevisiae deletion strains, growth OD, locus YNL020C, strain ARK1, hits give low values
The whole screen tested about 5,500 compounds, of which about 2,000 (36%) were called active. About 18% were inconclusive and are not listed. Some of the results follow.

Consider the worked cases shown below.
-- ask Read the entry CCCCCCCC1CCC/C1=N/OC(=O)c1cccs1 (stereo not given) and write its reported normalized growth.
-- reply 0.896 (inactive)

-- ask Read the entry O=C(CCSc1cccs1)Nc1cccc(C(F)(F)F)c1 and write its reported normalized growth.
-- reply 0.923 (inactive)

-- ask Read the entry CSc1c(C#N)c(-c2ccc(Cl)cc2)nn1C(=O)c1ccccc1Cl and write its reported normalized growth.
-- reply 0.958 (inactive)

-- ask Read the entry O=S(=O)(Nc1cc(C(F)(F)F)ccc1F)c1cc(C(F)(F)F)ccc1Cl and write its reported normalized growth.
-- reply 0.882 (inactive)

Read the next record carefully.
-- ask Read the entry C/C(=N/OC(=O)Nc1ccc(Cl)cc1)c1ccc2c(c1)CCO2 and write its reported normalized growth.
-- reply 0.873 (inactive)

Measured values drawn from PubChem BioAssay AID1159580 for this set.
